Consider the following variants; for each one, report its normalized RNA/DNA level with ligand (log10).
B1: library; a variant is named by its letters at N, in order (parent)
chain: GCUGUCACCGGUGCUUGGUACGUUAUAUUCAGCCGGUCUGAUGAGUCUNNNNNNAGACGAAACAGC

Variants of: B1
Experiment: normalized RNA/DNA level with ligand (relative to sTRSVctl = 100) (log10 (% of sTRSVctl)); HEK293T overexpressing SLC46A1; ligand concentration (+) RNA-Seq: 6 mM; higher = less ribozyme self-cleavage, higher mRNA level
Details: with (6R,S)-folinic acid; ligand present: yes
Lab note: jot down the number only; don't add units.

Exam item: Recorded normalized RNA/DNA level with ligand (log10) of `GUCUCU` , please.
Marked response: 2.03

Exam item: Recorded normalized RNA/DNA level with ligand (log10) of `AAUGUG` , please.
Marked response: 2

Exam item: Recorded normalized RNA/DNA level with ligand (log10) of `AAGUUC` , please.
Marked response: 2.02

Exam item: Recorded normalized RNA/DNA level with ligand (log10) of `UGCAGG` , please.
Marked response: 1.91

Exam item: Recorded normalized RNA/DNA level with ligand (log10) of `GGUCUG` , please.
Marked response: 2.06

Exam item: Recorded normalized RNA/DNA level with ligand (log10) of `UGGGAA` , please.
Marked response: 1.98

Exam item: Recorded normalized RNA/DNA level with ligand (log10) of `UUUUAG` , please.
Marked response: 1.97

Exam item: Recorded normalized RNA/DNA level with ligand (log10) of `UGAAGG` , please.
Marked response: 1.96

Exam item: Recorded normalized RNA/DNA level with ligand (log10) of `CGGCUG` , please.
Marked response: 2.04

Exam item: Recorded normalized RNA/DNA level with ligand (log10) of `UCUACC` , please.
Marked response: 2.05

Exam item: Recorded normalized RNA/DNA level with ligand (log10) of `UUCACG` , please.
Marked response: 2.01

Exam item: Recorded normalized RNA/DNA level with ligand (log10) of `GCGGUG` , please.
Marked response: 2.07

Exam item: Recorded normalized RNA/DNA level with ligand (log10) of `CGUUCU` , please.
Marked response: 2.03

Exam item: Recorded normalized RNA/DNA level with ligand (log10) of `UAACGU` , please.
Marked response: 2

Exam item: Recorded normalized RNA/DNA level with ligand (log10) of `GCAAUU` , please.
Marked response: 2.04

Exam item: Recorded normalized RNA/DNA level with ligand (log10) of `AUCUAU` , please.
Marked response: 2.03

Exam item: Recorded normalized RNA/DNA level with ligand (log10) of `GUUCCA` , please.
Marked response: 2.03

Exam item: Recorded normalized RNA/DNA level with ligand (log10) of `GGUACA` , please.
Marked response: 2.07

Exam item: Recorded normalized RNA/DNA level with ligand (log10) of `GCGUAA` , please.
Marked response: 2.04

Exam item: Recorded normalized RNA/DNA level with ligand (log10) of `AAACAA` , please.
Marked response: 1.99

Exam item: Recorded normalized RNA/DNA level with ligand (log10) of `CUAGCG` , please.
Marked response: 2.05

Exam item: Recorded normalized RNA/DNA level with ligand (log10) of `AAAUGU` , please.
Marked response: 1.99

Exam item: Recorded normalized RNA/DNA level with ligand (log10) of `CUCCGC` , please.
Marked response: 1.99

Exam item: Recorded normalized RNA/DNA level with ligand (log10) of `CAAGCG` , please.
Marked response: 2.06

Exam item: Recorded normalized RNA/DNA level with ligand (log10) of `UGCACA` , please.
Marked response: 2.01

Exam item: Recorded normalized RNA/DNA level with ligand (log10) of `GACAAA` , please.
Marked response: 2.01

Exam item: Recorded normalized RNA/DNA level with ligand (log10) of `CCGCAA` , please.
Marked response: 2

Exam item: Recorded normalized RNA/DNA level with ligand (log10) of `CGGCAC` , please.
Marked response: 2.05

Exam item: Recorded normalized RNA/DNA level with ligand (log10) of `GUUAAC` , please.
Marked response: 2.02

Exam item: Recorded normalized RNA/DNA level with ligand (log10) of `UGGGUA` , please.
Marked response: 1.98

Exam item: Recorded normalized RNA/DNA level with ligand (log10) of `GGCCGG` , please.
Marked response: 2.05

Exam item: Recorded normalized RNA/DNA level with ligand (log10) of `UUUCCC` , please.
Marked response: 2.02

Exam item: Recorded normalized RNA/DNA level with ligand (log10) of `GUUGAA` , please.
Marked response: 2.01

Exam item: Recorded normalized RNA/DNA level with ligand (log10) of `ACGAAC` , please.
Marked response: 2.03

Exam item: Recorded normalized RNA/DNA level with ligand (log10) of `UUCGGA` , please.
Marked response: 2.02

Exam item: Recorded normalized RNA/DNA level with ligand (log10) of `AGAUGC` , please.
Marked response: 2.03

Exam item: Recorded normalized RNA/DNA level with ligand (log10) of `UUAUGA` , please.
Marked response: 2.01

Exam item: Recorded normalized RNA/DNA level with ligand (log10) of `AUCUAA` , please.
Marked response: 2.01

Exam item: Recorded normalized RNA/DNA level with ligand (log10) of `UGAUGG` , please.
Marked response: 1.91

Exam item: Recorded normalized RNA/DNA level with ligand (log10) of `GGAUGC` , please.
Marked response: 1.96

Exam item: Recorded normalized RNA/DNA level with ligand (log10) of `UGUUUC` , please.
Marked response: 2.04

Exam item: Recorded normalized RNA/DNA level with ligand (log10) of `GGCUUG` , please.
Marked response: 2.05

Exam item: Recorded normalized RNA/DNA level with ligand (log10) of `UACUGG` , please.
Marked response: 1.97

Exam item: Recorded normalized RNA/DNA level with ligand (log10) of `AGUGGC` , please.
Marked response: 2.04

Exam item: Recorded normalized RNA/DNA level with ligand (log10) of `CCAAGU` , please.
Marked response: 2.04
